Please go through the items and note down their GI50.
Tested on: OVCAR-5 ovarian
Assay protocol: NCI tumour cell line growth inhibition, 48 h

Before answering, review these 3 worked examples.
[Q] Give a short answer stating reported GI50 for CC/C=C\C[C@H](O)C/C=C1/C(=O)C(Cl)=C[C@@H]1C/C=C\CCCC(=O)OC .
[A] 0.754 µM

[Q] Give a short answer stating reported GI50 for Cc1cc(Cl)cc(OCCn2cc(F)cn2)c1-c1nc(N)nc2c1CN(C(=O)NCC(C)(F)F)C2 .
[A] 2.66 µM

[Q] Give a short answer stating reported GI50 for COc1cc(OCc2cccc(-c3ccc(C(O)c4nccs4)cc3)c2C)cc(OC)c1C=O (centres undefined) .
[A] 0.929 µM

Others:
[Q] Give a short answer stating reported GI50 for O=C(Nc1ccc(Nc2ccncc2)cc1)c1ccc([N+](=O)[O-])cc1 .
[A] 9.82 µM
